// data source = patent US20250066476A1

- study-target: T1, human PSMA (Prostate Specific Membrane Antigen, Glutamate Carboxypeptidase II) (human, UniProt Q04609 1-750)
- T1 construct: whole, on cells; the cell line is named under assay; also called FOLH1
- T1 sequence (Q04609 whole entry): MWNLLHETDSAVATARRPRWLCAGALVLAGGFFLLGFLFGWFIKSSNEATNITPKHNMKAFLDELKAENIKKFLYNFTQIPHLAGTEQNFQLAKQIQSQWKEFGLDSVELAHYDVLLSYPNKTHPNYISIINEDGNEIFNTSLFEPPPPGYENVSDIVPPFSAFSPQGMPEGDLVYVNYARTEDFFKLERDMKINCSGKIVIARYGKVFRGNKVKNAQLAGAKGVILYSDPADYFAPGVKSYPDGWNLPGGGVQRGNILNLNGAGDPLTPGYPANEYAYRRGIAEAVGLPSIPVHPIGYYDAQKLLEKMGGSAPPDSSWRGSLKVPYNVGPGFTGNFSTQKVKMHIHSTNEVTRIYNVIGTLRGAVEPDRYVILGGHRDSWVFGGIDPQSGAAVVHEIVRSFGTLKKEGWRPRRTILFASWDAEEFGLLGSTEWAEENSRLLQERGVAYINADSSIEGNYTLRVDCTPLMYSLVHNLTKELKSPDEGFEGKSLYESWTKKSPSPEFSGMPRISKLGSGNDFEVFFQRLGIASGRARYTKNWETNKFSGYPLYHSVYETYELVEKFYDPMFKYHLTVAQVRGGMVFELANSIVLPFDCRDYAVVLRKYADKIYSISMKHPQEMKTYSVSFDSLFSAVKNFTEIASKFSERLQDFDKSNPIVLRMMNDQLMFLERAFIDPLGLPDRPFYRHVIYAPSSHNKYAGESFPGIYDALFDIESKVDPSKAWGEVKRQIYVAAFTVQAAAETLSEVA
- assay-procedure: flow cytometry on LNCaP cells
Our labelling divides records by fold over the background MFI signal into ranges: L = under 70 fold over background MFI, M = from 70 fold over background MFI up to 100 fold over background MFI, H = 100 fold over background MFI and over

{"binder": "anti-PSMA heavy-chain antibody clone ID 346165 (antibody, V domains shown, heavy chain-only antibody (UniAb/HCAb)) VH: QLQLQESGPGLVKPSETLSLTCTVSGGSISSSSYYWGWIRQPPGKGLEWIGSVDYSGYTYYNPSLQSRVTISVDTSKNQFSLKLSSVTAADTAVYNCARHKAATADFDYRGQGTLVTVSS", "assigned-class": "H"}
{"binder": "anti-PSMA heavy-chain antibody clone ID 345480 (antibody, V domains shown, heavy chain-only antibody (UniAb/HCAb)) VH: QVQLVESGGGVVQPGRSLRLSCAASGFSFSSYGMHWVRQAPGKGLEWVAVIWYDGSNRYYADSVKGRFTISRDNSKNTLYLQMNSLRAEDTAVYYCAREPRIGYYYESSGYYSLDYRGQGTLVTVSS", "assigned-class": "L"}
{"binder": "anti-PSMA heavy-chain antibody clone ID 345482 (antibody, V domains shown, heavy chain-only antibody (UniAb/HCAb)) VH: QVQLVESGGGVVQPGRSLRLSCAASGFSFSSYGMHWVRQAPGKGLEGVAVIWYDGSNRYYADSVKGRFTISRDSSKNTLYLQMNSLRAEDTAVYYCAREPRIGYYYESSGYYSLDYRGQGTLVTVSS", "assigned-class": "M"}
{"binder": "anti-PSMA heavy-chain antibody clone ID 345438 (antibody, V domains shown, heavy chain-only antibody (UniAb/HCAb)) VH: QVQLVESGGGVVQPGRSLRLSCAASGFSFSSYGMHWVRQAPGKGPEWVAVIWYDGSNKYYADSVKGRFTISRDNSKNTLYLQMNSLRAEDTAVYYCAREPRIGYYYESSGYYSLDYRGQGTLVTVSS", "assigned-class": "L"}
{"binder": "anti-PSMA heavy-chain antibody clone ID 326087 (antibody, V domains shown, heavy chain-only antibody (UniAb/HCAb)) VH: QVQLVESGGGVVQPGRSLRLSCAASGFIFRSYGMHWVRQAPGKGPEWVAVIWYDGSNKYYADSVKGRFTISRDNSKNTLYLQMNSLRAEDTAVYYCAREPRIGYYYDSSGYDSLDYRGQGTLVTVSS", "assigned-class": "H"}
{"binder": "anti-PSMA heavy-chain antibody clone ID 345490 (antibody, V domains shown, heavy chain-only antibody (UniAb/HCAb)) VH: QVQLVESGGGLVKPGGSLRLSCAASGFSFSSYGMHWVRQAPGKGLEGVAVIWYDGSNRYYADSVKGRFTISRDNSKNTLYLQMNSLRAEDTAVYYCAREPRIGYYYESSGYYSLDYRGQGTLVTVSS", "assigned-class": "M"}
{"binder": "anti-PSMA heavy-chain antibody clone ID 325742 (antibody, V domains shown, heavy chain-only antibody (UniAb/HCAb)) VH: QVQLVESGGGVVQPGRSLRLSCAASGFSFSSYGMHWVRQAPGKGLEWVAVIWYDGSNKYYADSVKGRFTISRDYSKNTLYLQMNSLRAEDTAVYYCAREPRIGYYYESSGYDSLDYRGQGTLVTVSS", "assigned-class": "H"}
{"binder": "anti-PSMA heavy-chain antibody clone ID 326109 (antibody, V domains shown, heavy chain-only antibody (UniAb/HCAb)) VH: QLQLQESGPGLVKPSETLSLTCTVSGGSISSNSYYWGWIRQSPGKGLEWLGSIYDSGSTHYNPSLKSRVIISGDTSKNQFSLKLSSVTAADTAVYYCARHKAATADFDYRGQGTLVTVSS", "assigned-class": "L"}
{"binder": "anti-PSMA heavy-chain antibody clone ID 345443 (antibody, V domains shown, heavy chain-only antibody (UniAb/HCAb)) VH: QVQLVESGGGVVQPGRSLRLSCAASGFSFSSYGMHWVRQAPGKGLEGVAVIWYDGSNRYYADSVKGRFTISRDNSKNTLFLQMNSLRAEDTAVYYCAREPRIGYYYESSGYYSLDYRGQGTLVTVSS", "assigned-class": "M"}
{"binder": "anti-PSMA heavy-chain antibody clone ID 325940 (antibody, V domains shown, heavy chain-only antibody (UniAb/HCAb)) VH: QVQLVESGGGVVQPGRSLRLSCAASGFIFRSYGMHWVRQAPGKGPEWVAVIWYDGSNKYYADSVKGRFTISRDNSKNTLYLQMNSLRAEDTAVYYCAREPRIGYYYESSGYYSLDYRGQGTLVTVSS", "assigned-class": "H"}
